# Protocol summary: NCI Yeast Anticancer Drug Screen. Data for the cln2 rad14 strain (AID 165);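 note: 0% = growth equal to vehicle treated cultures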
# Conditions used: S. cerevisiae cln2 rad14 strain, at 50.0 µM, active compounds read high
This is part of a sample that, as a whole, favours compounds with a hit. Of some 79,000 tested, about 15% had one in any assay.
Property: growth inhibition (%)
Numbers only, in %.

Illustrative cases are given below, each with its answer.
CC(=O)OCC1OC(N=[N+]=[N-])C(OC(C)=O)C(OC(C)=O)C1OC1OC(COC(C)=O)C(OC(C)=O)C(OC(C)=O)C1OC(C)=O (stereo not given): -0.35
COc1ccc2nc3cc(Cl)ccc3c(Sc3ccc(NC(C)=O)cc3)c2c1: 11.3
Brc1cc(Br)c2c(c1)CN(C1CCCCC1)CO2 (tested in a mixture with another compound): -18.9
COc1ccc(C2(C(OC)OC)NC(=O)N(Cc3ccccc3)C2=O)cc1 (stereo not given): -49.4
CCCCCC(=O)Nc1cc(N)cc(C(=O)O)c1: -9.6
CC12CCC3c4ccc(OC(=O)c5ccccc5)cc4CCC3C1CC(O)C2 (stereo not given): 42.7

Please state growth inhibition for every compound in the list that follows.
1. Cc1ccc2nc(-c3ccc(N=NNc4ccc(-c5nc6ccc(C)c(S(=O)(=O)O)c6s5)cc4)cc3)sc2c1S(=O)(=O)O
2. O=C(Cc1ccccc1)N(c1ccccc1)c1ccccc1
3. O=C(O)CSC1=NNC2(C(=O)N1)c1ccccc1-c1ccccc12
4. O=[N+]([O-])c1ccc(I)c(I)c1

18.2
14.7
-2.1
-43.2
